Molecular target: mutant G12C K-RAS (Homo sapiens, UniProt P01116, G12C)
Construct: made in house; host or cells: E. coli BL21
Assay: covalent adduct formation (CAF) with mutant G12C K-RAS
Type: binding
Conditions: Table 6; 10 μM, 1 h
Protocol: Embodiments disclosed herein are further illustrated by the following examples in Tables 1-4 and the Examples hereinbelow. The Tables indicate the compound number, structure, the observed mass spectral molecular weight peak, and covalent adduct formation (CAF) with a mutant G12C K-RAS after 60 minutes at a concentration of 10 micromolar.

Compound: C=CC(=O)N1C[C@H](C)N(c2nc(=O)n3c4c(c(-c5ccc(F)cc5F)c(Cl)cc24)OC[C@@H]3CN2CCS(=O)(=O)CC2)C[C@H]1C
Assayed System: mutant G12C K-RAS (Homo sapiens, UniProt P01116, G12C)
% CAF @ 10 μM,1 h: 94.6%
//
Compound: C=CC(=O)N1C[C@H](C)N(c2nc(=O)n3c4c(c(-c5c(O)cccc5F)c(Cl)cc24)OC[C@@H]3CCCN2CCOCC2)C[C@H]1C (atropisomer, axis not shown) [Example 265]
Assayed System: mutant G12C K-RAS (Homo sapiens, UniProt P01116, G12C)
% CAF @ 10 μM,1 h: 97.5%
//
Compound: C=CC(=O)N1C[C@H](C)N(c2nc(=O)n3c4c(c(-c5c(O)cccc5F)c(Cl)cc24)OC[C@@H]3CN2CCN(C)CC2)C[C@H]1C (atropisomer, axis not shown) [Example 314]
Assayed System: mutant G12C K-RAS (Homo sapiens, UniProt P01116, G12C)
% CAF @ 10 μM,1 h: 74.8%

* * *

target: mutant G12C K-RAS (Homo sapiens, UniProt P01116, G12C); construct: made in house; host or cells: E. coli BL21; assay: covalent adduct formation (CAF) with mutant G12C K-RAS; assay type: binding; details: Table 6; 10 μM, 1 h
Lab note: compare % CAF @ 10 μM,1 h against 70%. Equal or greater, write Y. Smaller, write N.

Compound: C=CC(=O)N1C[C@H](C)N(c2nc(=O)n3c4c(c(-c5c(C)ccc6[nH]ncc56)c(Cl)cc24)OC[C@H]3CCCN2C[C@@H]3C[C@H]2CO3)C[C@H]1C (atropisomer, axis not shown) [Example 326]
Class: Y
--
Compound: C=CC(=O)N1C[C@H](C)N(c2nc(=O)n3c4c(c(-c5ccc(F)cc5F)c(Cl)cc24)O[C@H](CCCO)C3)C[C@H]1C
Class: N
--
Compound: C=CC(=O)N1C[C@H](C)N(c2nc(=O)n3c4c(c(-c5ccc(F)cc5F)c(Cl)cc24)OC[C@@H]3COC2CCN(C)C2)C[C@H]1C (stereo in doubt) [Example 313]
Class: N

* * *

molecular target: mutant G12C K-RAS (Homo sapiens, UniProt P01116, G12C); construct: made in house; host or cells: E. coli BL21; experiment: covalent adduct formation (CAF) with mutant G12C K-RAS; assay type: binding; conditions: Table 6; 10 μM, 1 h
Lab note: compare % CAF @ 10 μM,1 h against 2%. Equal or greater, write condition met. Smaller, write condition not met.

Molecule: C=CC(=O)N1C[C@H](C)N(c2nc(=O)n3c4c(c(-c5ccc(F)cc5F)c(Cl)cc24)OC[C@H]3Cn2ccnc2)C[C@H]1C
Assayed System: mutant G12C K-RAS (Homo sapiens, UniProt P01116, G12C)
Class: condition met
--
Molecule: C=CC(=O)N1C[C@H](C)N(c2nc(=O)n3c4c(c(-c5c(C)ccc6cnn(C)c56)ccc24)OCC3)C[C@H]1C
Assayed System: mutant G12C K-RAS (Homo sapiens, UniProt P01116, G12C)
Class: condition met
--
Molecule: C=CC(=O)N1C[C@H](C)N(c2nc(=O)n3c4c(c(-c5c(O)cccc5F)c(Cl)cc24)OC[C@@H]3CN2CCOCC2)C[C@H]1C (atropisomer, axis not shown)
Assayed System: mutant G12C K-RAS (Homo sapiens, UniProt P01116, G12C)
Class: condition not met
--
Molecule: C=CC(=O)N1C[C@H](C)N(c2nc(=O)n3c4c(c(-c5c(F)ccc6c5C(=O)NC6)ccc24)OCC3)C[C@H]1C
Assayed System: mutant G12C K-RAS (Homo sapiens, UniProt P01116, G12C)
Class: condition not met
--
Molecule: C=CC(=O)N1C[C@H](C)N(c2nc(=O)n3c4c(c(-c5ccc(F)cc5F)c(Cl)cc24)OC[C@@H]3Cn2cccn2)C[C@H]1C
Assayed System: mutant G12C K-RAS (Homo sapiens, UniProt P01116, G12C)
Class: condition met
--
Molecule: C=CC(=O)N1C[C@H](C)N(c2nc(=O)n3c4c(c(-c5ccc(F)cc5F)c(Cl)cc24)OC[C@@H]3CCCN2CCN(C)CC2)C[C@H]1C
Assayed System: mutant G12C K-RAS (Homo sapiens, UniProt P01116, G12C)
Class: condition met

* * *

biological target: mutant G12C K-RAS (Homo sapiens, UniProt P01116, G12C); construct: made in house; host or cells: E. coli BL21; test: covalent adduct formation (CAF) with mutant G12C K-RAS; type: binding; settings: Table 6; 10 μM, 1 h

Compound: C=CC(=O)N1C[C@H](C)N(c2nc(=O)n3c4c(c(-c5c(F)ccc6[nH]cnc56)ccc24)OCC3)C[C@H]1C
Assayed System: mutant G12C K-RAS (Homo sapiens, UniProt P01116, G12C)
% CAF @ 10 μM,1 h / %: 0
--
Compound: C=CC(=O)N1C[C@H](C)N(c2nc(=O)n3c4c(c(-c5c(O)cccc5F)c(Cl)cc24)OC[C@@H]3Cn2cccn2)C[C@H]1C (atropisomer, axis not shown) [Example 244]
Assayed System: mutant G12C K-RAS (Homo sapiens, UniProt P01116, G12C)
% CAF @ 10 μM,1 h / %: 4.4
--
Compound: C=CC(=O)N1C[C@H](C)N(c2nc(=O)n3c4c(c(-c5ccc(F)cc5F)c(C#N)cc24)OC[C@H]3CCCN2C[C@@H]3C[C@H]2CO3)C[C@H]1C
Assayed System: mutant G12C K-RAS (Homo sapiens, UniProt P01116, G12C)
% CAF @ 10 μM,1 h / %: 56.9
--
Compound: C=CC(=O)N1C[C@H](C)N(c2nc(=O)n3c4c(c(-c5ccc(F)cc5F)c(Cl)cc24)OC[C@H]3CCCN2CCOCC2)C[C@H]1C
Assayed System: mutant G12C K-RAS (Homo sapiens, UniProt P01116, G12C)
% CAF @ 10 μM,1 h / %: 95.6
--
Compound: C=CC(=O)N1C[C@H](C)N(c2nc(=O)n3c4c(c(-c5c(O)cccc5F)c(Cl)cc24)OC[C@H]3CN2CCC(F)(F)C2)C[C@H]1C (atropisomer, axis not shown)
Assayed System: mutant G12C K-RAS (Homo sapiens, UniProt P01116, G12C)
% CAF @ 10 μM,1 h / %: 1.4
--
Compound: C=CC(=O)N1CCN(c2nc(=O)n3c4c(c(-c5c(O)cccc5F)c(Cl)cc24)OC[C@@H]3CN2CCC(F)(F)C2)[C@@H](C)C1 (atropisomer, axis not shown) [Example 229]
Assayed System: mutant G12C K-RAS (Homo sapiens, UniProt P01116, G12C)
% CAF @ 10 μM,1 h / %: 1.6
--
Compound: C=CC(=O)N1C[C@H](C)N(c2nc(=O)n3c4c(c(-c5c(F)cccc5C(F)F)ccc24)OCC3)C[C@H]1C
Assayed System: mutant G12C K-RAS (Homo sapiens, UniProt P01116, G12C)
% CAF @ 10 μM,1 h / %: 0
--
Compound: C=CC(=O)N1CCN(c2nc(=O)n3c4c(c(-c5ccc(F)cc5F)cc(CC#N)c24)OCC3)CC1
Assayed System: mutant G12C K-RAS (Homo sapiens, UniProt P01116, G12C)
% CAF @ 10 μM,1 h / %: 13.5
--
Compound: C=CC(=O)N1C[C@H](C)N(c2nc(=O)n3c4c(c(-c5cc(Cl)ccc5F)c(Cl)cc24)OC[C@@H]3CN2CCOCC2)C[C@H]1C
Assayed System: mutant G12C K-RAS (Homo sapiens, UniProt P01116, G12C)
% CAF @ 10 μM,1 h / %: 77.4
--
Compound: C=CC(=O)N1C[C@H](C)N(c2nc(=O)n3c4c(c(-c5ccc(F)cc5F)c(Cl)cc24)OC[C@H]3CN2CCC2)C[C@H]1C
Assayed System: mutant G12C K-RAS (Homo sapiens, UniProt P01116, G12C)
% CAF @ 10 μM,1 h / %: 76
--
Compound: C=CC(=O)N1C[C@H](C)N(c2nc(=O)n3c4c(c(-c5ccc(F)cc5F)c(Cl)cc24)OC[C@H]3CCN2CCOCC2)C[C@H]1C
Assayed System: mutant G12C K-RAS (Homo sapiens, UniProt P01116, G12C)
% CAF @ 10 μM,1 h / %: 90.6
--
Compound: C=CC(=O)N1CCN(c2nc(=O)n3c4c(c(-c5c(O)cccc5F)c(Cl)cc24)OC[C@H]3CN2CCOCC2)[C@@H](C)C1 [Example 198]
Assayed System: mutant G12C K-RAS (Homo sapiens, UniProt P01116, G12C)
% CAF @ 10 μM,1 h / %: 100
